Field: growth. Provide a value for each of the compounds that follow.
# System: UO-31 renal
# assay: NCI-60 one-dose screen, 48 h (100 = growth as untreated, 0 = no growth, -100 = all killed)
# condition-context: 10 µM
Compounds without any hit were thinned out: in the full panel of roughly 83,000, 20% have a hit. Activity calls are given as the source filed them. Rule for the calls: active = growth percent below 10; inactive = the rest.

Report growth under test system UO-31 renal for OCC1OC2C(NC(=S)N2c2ccccc2)C(O)C1O (stereo unspecified) .
101% (inactive)

Report growth under test system UO-31 renal for "COc1cc(NC(=O)Nc2cnc(Nc3ccc(N4CCOCC4)cc3)nc2Oc2cccc(OC)c2)cc(OC)c1" .
6.12% (active)

Report growth under test system UO-31 renal for "Nc1ccc(CC[C@H]2CCC/C=C/[C@@H]3C[C@H](O)C[C@H]3[C@H](O)/C=C/C(=O)O2)cc1" .
2.24% (active)

Report growth under test system UO-31 renal for "CCOC(=O)c1cc(C(=O)c2ccc(F)cc2F)n2ccccc12" .
72.3% (inactive)

Report growth under test system UO-31 renal for "O=C(O)c1ccc(-n2cc(CNc3ccc(Cl)cc3)c(-c3ccccc3)n2)cc1" .
82.4% (inactive)

Report growth under test system UO-31 renal for "COc1cc(C(=O)/C=C/c2c[nH]c3ccccc23)cc(OC)c1OC" .
20.9% (inactive)

Report growth under test system UO-31 renal for "Nc1cc(-c2ccc(Cl)cc2)nn1-c1nc2ccccc2nc1Cc1ccccc1" .
87% (inactive)

Report growth under test system UO-31 renal for "O=C(O)c1cc([N+](=O)[O-])ccc1Oc1ccccc1" .
83.5% (inactive)

Report growth under test system UO-31 renal for "COc1cc2cc(Oc3ccc(NC(=O)c4ccc(Cl)c(C(F)(F)F)c4)cc3)c(C)nc2cc1OC" .
18.3% (inactive)

Report growth under test system UO-31 renal for "CS(=O)(=O)c1nccc(-c2c(-c3cccc(OCCN4CCOCC4)c3)nc3sccn23)n1" .
68.5% (inactive)

Report growth under test system UO-31 renal for "CC(=O)Nc1ccc2c(c1)C(=O)c1cccc(C(=O)O)c1-2" .
111% (inactive)

Report growth under test system UO-31 renal for "Cc1ccc(NCCNCC(C)(C)O)c2c(=O)c3ccc(Cl)cc3sc12" .
41.2% (inactive)

Report growth under test system UO-31 renal for "CN(C)CCCOc1ccc(NC2=C(Cl)C(=O)C(Nc3ccc(OCCCN(C)C)cc3)=C(Cl)C2=O)cc1" .
-99% (active)

Report growth under test system UO-31 renal for "COc1ccc2nc(Cl)c(Cn3nnc(Cc4ccccc4)n3)cc2c1" .
14.7% (inactive)

Report growth under test system UO-31 renal for "Cc1ccc(S(=O)(=O)N(C)CCCCCC(=O)O)cc1" .
88.3% (inactive)

Report growth under test system UO-31 renal for CN(C)c1ncnc2c1nnn2C1OC(CO)C(O)C1O (stereo unspecified) .
8.73% (active)
